This section presents binders with their documented fold change of affinity values.
TARGET DESC: T1, Human CD3eg linker (human)
T1 construct: Single-chain construct; also called recombinant human CD3
T1 chain: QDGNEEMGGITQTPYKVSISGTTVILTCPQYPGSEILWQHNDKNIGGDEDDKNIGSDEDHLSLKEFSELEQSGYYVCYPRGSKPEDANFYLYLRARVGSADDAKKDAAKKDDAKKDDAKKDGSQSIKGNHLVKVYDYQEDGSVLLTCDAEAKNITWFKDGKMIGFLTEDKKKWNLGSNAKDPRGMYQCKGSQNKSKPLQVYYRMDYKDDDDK
TEST DETAILS: SPR; fold vs parent H183/L072
Lab book: enter the figure in fold, no units written.

BINDER | fold change of affinity, fold
H183/L072 VL S52N (antibody, name in Kabat numbering, V domains shown) VH: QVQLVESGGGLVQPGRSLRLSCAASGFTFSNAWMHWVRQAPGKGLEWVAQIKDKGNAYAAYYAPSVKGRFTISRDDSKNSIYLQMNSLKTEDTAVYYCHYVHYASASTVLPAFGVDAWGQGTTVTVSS VL: DIVMTQSPLSLPVTPGEPASISCQASQELVHMNRNTYLHWYQQKPGQAPRLLIYKVNNRFPGVPDRFSGSGSGTDFTLKISRVEAEDVGVYYCAQGTSVPFTFGQGTKLEIK | 1.5
H183/L072 VL T97H (antibody, name in Kabat numbering, V domains shown) VH: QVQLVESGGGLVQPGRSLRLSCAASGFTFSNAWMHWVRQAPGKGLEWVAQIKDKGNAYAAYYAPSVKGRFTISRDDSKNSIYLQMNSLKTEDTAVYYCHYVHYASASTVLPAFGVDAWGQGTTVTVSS VL: DIVMTQSPLSLPVTPGEPASISCQASQELVHMNRNTYLHWYQQKPGQAPRLLIYKVSNRFPGVPDRFSGSGSGTDFTLKISRVEAEDVGVYYCAQGTSVPFHFGQGTKLEIK | 0.5

Data request: Returns the measured fold change of affinity for the input binder. Input: H183/L072 VL N53H (antibody, name in Kabat numbering, V domains shown) VH: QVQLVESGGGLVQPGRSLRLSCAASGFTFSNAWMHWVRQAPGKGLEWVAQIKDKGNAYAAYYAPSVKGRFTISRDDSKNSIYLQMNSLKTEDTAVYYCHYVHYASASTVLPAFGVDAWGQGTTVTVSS VL: DIVMTQSPLSLPVTPGEPASISCQASQELVHMNRNTYLHWYQQKPGQAPRLLIYKVSHRFPGVPDRFSGSGSGTDFTLKISRVEAEDVGVYYCAQGTSVPFTFGQGTKLEIK
Data returned: 1.2
